system: T47D cells; assay: Cell-based assay: anti-proliferative activity, Cell Counting Kit-8, 72 hours (T47D); conditions: 72 hours, trihydrochloride
Counter-ions that a name gives are not always drawn.
endpoint.name: IC50 (µM)
Give bare numbers, in µM.

Item CN(C)CCNc1ccc(Nc2c(C(=O)C3CC3)cnc3ccc(-c4cc(F)c(O)c(Cl)c4)cc23)cn1 [Example 777, trihydrochloride] has what recorded IC50?
0.12

* * *

test system: T47D cells; experiment: Cell-based assay: anti-proliferative activity, Cell Counting Kit-8, 72 hours (T47D); settings: Homo sapiens, T47D, 72 h
Where a name gives a salt, the structure may show the parent alone.
endpoint.name: log10 of IC50 (log10 of the value in µM)
Note the log scale: values are log10 of IC50 expressed in µM.

{"compound": "NC1CCCN(c2ncc(Nc3c(C(=O)C4CC4)cnc4ccc(-c5cc(F)c(O)c(Cl)c5)cc34)cn2)C1 (centres unmarked)", "log10 of IC50": -2.29}

Consider the following items and state reported log10 of IC50 for each.
1. O=C(c1cnc2ccc(-c3cc(Cl)c(O)c(Cl)c3)cc2c1Nc1ccc(CN2CCCC2)nc1)C1CC1
2. CN1CCC(n2cc(Nc3c(S(C)(=O)=O)cnc4ccc(-c5cc(Cl)c(O)c(Cl)c5)cc34)cn2)CC1 [Example 899, hydrochloride]
3. CN(C)C[C@H]1CC[C@H](Nc2c(C(=O)C(C)(C)C)cnc3ccc(-c4cc(F)c(O)c(Cl)c4)cc23)CC1 [Example 919, hydrochloride]

-0.52
0.20
0.28

Consider the following items and state reported log10 of IC50 for each.
1. CCC(=O)c1cnc2ccc(-c3cc(F)c(O)c(Cl)c3)cc2c1Nc1ccc(N2CCN(C)CC2)nc1
2. CC(=O)c1cnc2ccc(-c3cc(F)c(O)c(Cl)c3)cc2c1N[C@H]1CC[C@H](N)CC1
3. CN(C)Cc1ccc(Nc2c(C(=O)C3CCCC3)cnc3ccc(-c4cc(F)c(O)c(Cl)c4)cc23)cc1

1. -0.85
2. -1.47
3. -0.28

Consider the following items and state reported log10 of IC50 for each.
1. CC(=O)c1cnc2ccc(-c3cc(Cl)c(O)c(Cl)c3)cc2c1N[C@H]1CC[C@H](NC(=O)CN(C)C)CC1 [Example 877, hydrochloride]
2. O=C(c1cnc2ccc(-c3cc(Cl)c(O)c(Cl)c3)cc2c1Nc1cncc(CCN2CCCC2)c1)C1CC1
3. CNC1CCN(c2ccc(Nc3c(C(=O)C4CC4)cnc4ccc(-c5cc(F)c(O)c(Cl)c5)cc34)cn2)C1 (centres unmarked) [Example 789, trihydrochloride]
4. CN[C@H]1CC[C@H](Nc2c(C(C)=O)cnc3ccc(-c4cc(Cl)c(O)c(OC)c4)cc23)CC1
5. CN(C)CCOc1ccc(Nc2c(C(=O)C3CC3)cnc3ccc(-c4cc(Cl)c(O)c(Cl)c4)cc23)cn1
6. COc1cc(-c2ccc3ncc(C(=O)C4CC4)c(Nc4cnc(N5CCNCC5)nc4)c3c2)cc(Cl)c1O
7. CC(=O)c1cnc2ccc(-c3ccc4nc[nH]c4c3)cc2c1Nc1ccc(N2CCN(C)CC2)nc1 [Example 901, hydrochloride]

-0.96
2.00
-1.41
-1.11
-0.66
-0.62
0.08

* * *

Can you tell me IC50 for the items I'm about to list?
test system: T47D cells; assay: Cell-based assay: anti-proliferative activity, Cell Counting Kit-8, 72 hours (T47D); details: Homo sapiens, T47D, 72 h
Counter-ions that a name gives are not always drawn.
Answers are plain numbers, in µM.

{"compound": "NCc1ccc(Nc2c(C(=O)C3CC3)cnc3ccc(-c4cc(Cl)c(O)c(Cl)c4)cc23)cc1 [Example 507]", "IC50 / µM": 0.094}
{"compound": "CC(=O)c1cnc2ccc(-c3cc(Cl)c(O)c(Cl)c3)cc2c1N[C@H]1CC[C@H](C(=O)N(C)C)CC1 [Example 865, hydrochloride]", "IC50 / µM": 0.38}
{"compound": "CN1CCC(n2cc(Nc3c(S(C)(=O)=O)cnc4ccc(-c5cc(F)c(O)c(Cl)c5)cc34)cn2)CC1 [Example 900, hydrochloride]", "IC50 / µM": 1.6}
{"compound": "CC(=O)c1cnc2ccc(-c3cc(F)c(O)c(Cl)c3)cc2c1Nc1ccc(S(=O)(=O)N2CCN(C)CC2)cc1 [Example 894, hydrochloride]", "IC50 / µM": 1.5}

Consider the following items and state reported IC50 for each.
1. COc1cc(-c2ccc3ncc(C(=O)C4CC4)c(Nc4cnn(C5CCNCC5)c4)c3c2)cc(Cl)c1O [Example 512]
2. NC[C@H]1CC[C@H](Nc2c(C(=O)C3CC3)cnc3ccc(-c4cc(F)c(O)c(Cl)c4)cc23)CC1 [Example 501]

1. 0.41
2. 0.061

Item COc1cc(-c2ccc3ncc(C(C)=O)c(Nc4ccc(CN5CCCC5)cc4)c3c2)cc(Cl)c1O [Example 419] has what recorded IC50?
0.99

src = patent US9120749B2
